# tested_system: T1, native human ApoC3 (human, UniProt P02656 21-99, biotinylated in the captured-antigen assays (Tables 6 and 8); sites not stated)
# T1 construct: also called nhuApoC3; native huApoC3
# T1 sequence (P02656 21-99): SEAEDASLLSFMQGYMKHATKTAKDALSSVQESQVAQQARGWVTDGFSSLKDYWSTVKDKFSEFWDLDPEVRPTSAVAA
# experiment_summary: SPR, IgG captured via anti-human Fc, ApoC3 analyte 100 nM
# Procedure: Immobilization was performed in accordance with the method provided by Biacore in the NHS/EDC kit (Biacore AB). Briefly, after activation of the chip, a solution of 30 μg/ml anti-human Fcγ antibody in 10 mM acetate buffer with pH 5.0 was injected until the surface density reached approximately 10,000 RU. […] The resulting sensorgrams were analysed with BIAevaluation 4.1 software using the Langmuir 1:1 binding model to derive binding kinetics. […]
endpoint_name: log10(koff) (log10 of the value in s⁻¹)

[[record]]
binder = "5E5 WT IgG (antibody, V domains shown, Full-length IgG captured by an anti-human Fc antibody) VH: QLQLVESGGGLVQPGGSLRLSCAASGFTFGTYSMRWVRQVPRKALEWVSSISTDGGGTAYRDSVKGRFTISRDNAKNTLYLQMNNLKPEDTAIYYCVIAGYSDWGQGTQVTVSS VL: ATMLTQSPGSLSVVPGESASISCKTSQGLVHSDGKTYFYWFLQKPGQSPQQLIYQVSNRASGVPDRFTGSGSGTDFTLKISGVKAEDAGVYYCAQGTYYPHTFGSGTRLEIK"
endpoint_name = "log10(koff)"
value = -3.92

[[record]]
binder = "29A06 IgG (antibody, V domains shown) VH: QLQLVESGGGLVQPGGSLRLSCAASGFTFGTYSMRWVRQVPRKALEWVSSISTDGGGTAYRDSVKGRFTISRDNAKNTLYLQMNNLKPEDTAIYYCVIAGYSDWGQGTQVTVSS VL: DVVLTQTPGSLSVVPGESASISCKASQNLVHSNGKTYLYWLLQKPGQSPQRLIYQVSNRGSEVPDRFTGSGSGTDFTLKISGVKAEDAGVYYCAQGTYWPKTFGQGTKLEIK"
endpoint_name = "log10(koff)"
value = -3.50

[[record]]
binder = "29G11 IgG (antibody, V domains shown) VH: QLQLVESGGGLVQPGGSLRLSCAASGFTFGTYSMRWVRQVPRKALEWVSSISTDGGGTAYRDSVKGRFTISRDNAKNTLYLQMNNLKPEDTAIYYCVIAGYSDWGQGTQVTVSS VL: DVVLTQTPGSLSVVPGGSASISCKASQSLVYSDGKTYLYWLRQKPGQSPQRLIYQVSNRPSGVPDRFTGSGSGTDFTLKISGVKAEDAGVYYCAQDTYSTKTFGQGTKLEIK"
endpoint_name = "log10(koff)"
value = -2.93

[[record]]
binder = "29G02 IgG (antibody, V domains shown) VH: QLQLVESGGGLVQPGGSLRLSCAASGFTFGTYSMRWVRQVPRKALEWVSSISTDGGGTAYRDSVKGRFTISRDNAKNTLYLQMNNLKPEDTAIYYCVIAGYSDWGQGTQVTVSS VL: DVVLTQTPGSLSVVPGESASISCKATQSLVHIDGKTYLYWLLQKPGQSPQRLIYQVSTRDSGVPDRFTGAGSGAEFTLKISGVKAEDAGVYYCAQDTYSTKTFGQGTKLEIK"
endpoint_name = "log10(koff)"
value = -3.12

[[record]]
binder = "29F10 IgG (antibody, V domains shown) VH: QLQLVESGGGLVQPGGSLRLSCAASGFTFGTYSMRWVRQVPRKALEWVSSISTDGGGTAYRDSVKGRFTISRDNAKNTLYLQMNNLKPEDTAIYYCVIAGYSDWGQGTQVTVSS VL: DVVLTQTPGSLSVVPGEPASVSCKASQSLVHPDGKTYLYWLLQKPGQSPQRLIYQVSNRGSGVPDRFTGSGSGTDFTLEISGVKAEDAGVYYCAQGTYWPKTFGQGTKLEIK"
endpoint_name = "log10(koff)"
value = -3.66

[[record]]
binder = "29B03 IgG (antibody, V domains shown) VH: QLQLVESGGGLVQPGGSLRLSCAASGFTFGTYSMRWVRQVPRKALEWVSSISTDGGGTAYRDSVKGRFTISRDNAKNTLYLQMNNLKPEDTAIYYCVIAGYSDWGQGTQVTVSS VL: DVVLTQTPGSLSVVPGESASISCKAGQNLVHPDGKTYLYWLLQKPGQSPQRLIYQVSNRDSGVPDRFTGSGSGTDFTLKISGVKVEDAGVYYCAQGTYWPKTFGQGTKLEIK"
endpoint_name = "log10(koff)"
value = -4.10

[[record]]
binder = "29A05 IgG (antibody, V domains shown) VH: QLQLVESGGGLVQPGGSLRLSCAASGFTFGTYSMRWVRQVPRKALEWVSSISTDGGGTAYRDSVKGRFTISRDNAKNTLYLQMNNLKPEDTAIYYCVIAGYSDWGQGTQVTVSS VL: DVVLTQTPGSLSVVPGESASISCKASQSLVYSDGKTYLYWLLQKPGQSPQRLIYQVSNRDSGVPDRFTGSGSGTDFTLKISGVKVEDAGVYYCAQGTYWPKTFGQGTKLEIK"
endpoint_name = "log10(koff)"
value = -2.88

